# target_of_assay: ΔF508-CFTR (Homo sapiens, UniProt P13569, DEL508-508)
# Construct: host or cells: CFBE41o-, doxycycline-inducible
# Sequence (P13569 with tags, fused parts or gaps DEL508-508): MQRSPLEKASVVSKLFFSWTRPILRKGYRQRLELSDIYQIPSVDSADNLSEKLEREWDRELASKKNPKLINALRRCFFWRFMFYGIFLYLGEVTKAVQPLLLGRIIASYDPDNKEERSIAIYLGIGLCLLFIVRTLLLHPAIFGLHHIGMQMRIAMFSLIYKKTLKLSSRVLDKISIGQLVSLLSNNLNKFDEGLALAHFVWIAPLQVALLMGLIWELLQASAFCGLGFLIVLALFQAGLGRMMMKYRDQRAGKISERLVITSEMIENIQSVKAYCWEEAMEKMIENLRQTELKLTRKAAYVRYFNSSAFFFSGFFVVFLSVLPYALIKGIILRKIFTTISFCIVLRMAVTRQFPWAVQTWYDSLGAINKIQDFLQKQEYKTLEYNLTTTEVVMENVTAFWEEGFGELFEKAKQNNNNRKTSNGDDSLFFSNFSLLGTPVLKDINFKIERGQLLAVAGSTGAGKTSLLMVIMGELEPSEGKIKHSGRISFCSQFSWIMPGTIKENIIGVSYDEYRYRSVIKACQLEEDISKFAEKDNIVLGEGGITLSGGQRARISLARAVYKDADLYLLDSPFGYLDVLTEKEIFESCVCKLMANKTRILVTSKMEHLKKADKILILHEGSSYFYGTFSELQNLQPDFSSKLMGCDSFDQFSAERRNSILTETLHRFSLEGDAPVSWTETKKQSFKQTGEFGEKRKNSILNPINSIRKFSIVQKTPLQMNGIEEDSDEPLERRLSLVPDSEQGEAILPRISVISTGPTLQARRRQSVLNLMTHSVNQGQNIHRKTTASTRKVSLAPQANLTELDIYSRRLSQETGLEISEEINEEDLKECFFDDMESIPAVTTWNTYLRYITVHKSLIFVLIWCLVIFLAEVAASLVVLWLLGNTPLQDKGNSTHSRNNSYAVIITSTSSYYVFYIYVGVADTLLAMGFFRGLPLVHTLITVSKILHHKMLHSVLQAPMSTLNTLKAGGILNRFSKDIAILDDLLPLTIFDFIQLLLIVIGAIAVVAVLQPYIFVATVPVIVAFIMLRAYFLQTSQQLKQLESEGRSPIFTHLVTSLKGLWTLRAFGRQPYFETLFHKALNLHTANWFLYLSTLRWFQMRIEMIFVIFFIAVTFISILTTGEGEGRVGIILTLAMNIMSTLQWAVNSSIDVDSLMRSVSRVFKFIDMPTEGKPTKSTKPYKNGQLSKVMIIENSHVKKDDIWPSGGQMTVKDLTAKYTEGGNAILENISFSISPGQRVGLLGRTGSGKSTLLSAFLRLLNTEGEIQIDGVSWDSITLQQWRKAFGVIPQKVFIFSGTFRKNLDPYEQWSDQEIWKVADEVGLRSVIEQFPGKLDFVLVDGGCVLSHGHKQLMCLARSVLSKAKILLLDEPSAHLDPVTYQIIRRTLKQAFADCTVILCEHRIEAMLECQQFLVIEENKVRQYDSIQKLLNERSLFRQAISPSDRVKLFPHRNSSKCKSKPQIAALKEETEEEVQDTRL
# assay_protocol: CFTR cell surface levels using HRP-tagged ΔF508-CFTR expressing CFBE cells, intrinsic corrector capacity
# Type: cell-based
# condition_set: HRP-tagged ΔF508-CFTR expressing CFBE41o- cells; compound alone (intrinsic corrector capacity); 20 hours at 33° C.; read-out: EC50
Field: pEC50. Provide a value for each of the compounds that follow.
One number for each entry, as −log10 of the molar value.

I have 2 compounds here; please give me pEC50 for each one.
1. CN(c1ccc(-c2cc(C(=O)NS(C)(=O)=O)nc3c2c(C2CCC2)nn3-c2ccccc2)cn1)C1CCOCC1
2. COCCN(CCOC)c1ccc(-c2cc(C(=O)NS(C)(=O)=O)nc3c2c(C(C)C)nn3-c2ccnc(N3CCOCC3)c2)cn1

6.26
6.40

I have 2 compounds here; please give me pEC50 for each one.
1. CC1(S(=O)(=O)NC(=O)c2cc(N3CCC(N4CCOCC4)CC3)c3c(C4CCC4)nn(-c4ccccc4)c3n2)CC1
2. Cc1nn(-c2cccc(F)c2)c2nc(C(=O)NS(C)(=O)=O)cc(-c3ccc(N4CCOCC4)cc3)c12

1: 6.87; 2: 6.44

----------
Field: % Activation. Provide a value for each of the molecules that follow.
# target_of_assay: ΔF508-CFTR (Homo sapiens, UniProt P13569, DEL508-508)
# Construct: host or cells: CFBE41o-, doxycycline-inducible
# assay_protocol: CFTR cell surface levels using HRP-tagged ΔF508-CFTR expressing CFBE cells, intrinsic corrector capacity
# Format: cell-based
# Set-up: concentration or dose not given beside the values
# condition_set: HRP-tagged ΔF508-CFTR expressing CFBE41o- cells; compound alone (intrinsic corrector capacity); 20 hours at 33° C.
# Description: Measuring CFTR Cell Surface Levels Using HRP-Tagged ΔF508-CFTR Expressing CFBE Cells The HRP-tagged ΔF508-CFTR cell assay measures the expression of CFTR-ΔF508 at the plasma membrane. […] When HRP-tagged ΔF508-CFTR is present at the plasma membrane, the HRP enzyme activity can be measured. The amount of CFTR-ΔF508 that can be rescued to the plasma membrane is correlated with the amount of functional enzyme that can be measured. […]

- record_smiles: "COCC1CCN(c2cc(C(=O)NS(=O)(=O)NC3CCOCC3)nc3c2c(C2CCC2)nn3-c2ccc(F)cc2)CC1"
  target_of_assay: "ΔF508-CFTR (Homo sapiens, UniProt P13569, DEL508-508)"
  value_measured: "398.1%"
- record_smiles: "CC(C)c1nn(-c2ccc(F)cc2)c2nc(C(=O)NS(C)(=O)=O)cc(N3CCN(C4CCC4)CC3)c12"
  target_of_assay: "ΔF508-CFTR (Homo sapiens, UniProt P13569, DEL508-508)"
  value_measured: "121.9%"
- record_smiles: "CC(=O)N1CCN(C2CCN(c3cc(C(=O)NS(=O)(=O)N(C)C)nc4c3c(C3CCC3)nn4-c3ccc(F)cc3)CC2)CC1"
  target_of_assay: "ΔF508-CFTR (Homo sapiens, UniProt P13569, DEL508-508)"
  value_measured: "275.2%"
- record_smiles: "CCS(=O)(=O)NC(=O)c1cc(-c2cnc(N(C)C)nc2)c2c(C(C)C)nn(-c3cccc(N4CCOCC4)c3)c2n1"
  target_of_assay: "ΔF508-CFTR (Homo sapiens, UniProt P13569, DEL508-508)"
  value_measured: "369.93%"

I have 3 molecules here; please give me % Activation for each one.
1. CCN(C)S(=O)(=O)NC(=O)c1cc(N2CCC(N3CCOCC3)CC2)c2c(C3CCC3)nn(-c3ccc(F)cc3)c2n1
2. COCCN(C)c1ccc(-c2cc(C(=O)NS(C)(=O)=O)nc3c2c(C(C)C)nn3-c2cccc(N3CCCC3)c2)cc1
3. CN(C)S(=O)(=O)NC(=O)c1cc(N2CCC(N3CCC(F)(F)CC3)CC2)c2c(C3CCC3)nn(-c3ccc(F)cc3)c2n1

["212.7%", "381.05%", "269.23%"]

----------
# target_of_assay: ΔF508-CFTR (Homo sapiens, UniProt P13569, DEL508-508)
# Construct: host or cells: CFBE41o-, doxycycline-inducible
# assay_protocol: CFTR cell surface levels using HRP-tagged ΔF508-CFTR expressing CFBE cells, intrinsic corrector capacity
# Assay type: cell-based
# condition_set: HRP-tagged ΔF508-CFTR expressing CFBE41o- cells; compound alone (intrinsic corrector capacity); 20 hours at 33° C.; read-out: EC50
Field: pEC50. Provide a value for each of the compounds that follow.
Numbers only, as −log10 of the molar value.

- compound: "CC(C)c1nn(-c2ccnc(N3CCOCC3)c2)c2nc(C(=O)NS(C)(=O)=O)cc(-c3ccc(N4CCC(C#N)CC4)nc3)c12"
  pEC50: 6.35
- compound: "CN1CCCN(C(=O)c2cc(N3CCC(N4CCOCC4)CC3)c3c(C4CCC4)nn(-c4ccccc4)c3n2)S1(=O)=O"
  pEC50: 6.56
- compound: "COCC1CCN(c2cc(C(=O)NS(=O)(=O)CCC(=O)N(C)C)nc3c2c(C2CCC2)nn3-c2ccccc2)CC1"
  pEC50: 6.55

I have 7 compounds here; please give me pEC50 for each one.
1. CCS(=O)(=O)NC(=O)c1cc(-c2ccc(N3CCOCC3)cc2)c2c(C)nn(-c3ccc(F)c(F)c3)c2n1
2. COCCS(=O)(=O)NC(=O)c1cc(N2CCC(N3CCOCC3)CC2)c2c(C3CCC3)nn(-c3ccccc3)c2n1
3. CC(C)c1nn(-c2ccccc2)c2nc(C(=O)NS(C)(=O)=O)cc(-c3cnc(N4CCOCC4)nc3)c12
4. O=C(NS(=O)(=O)N1CCC1)c1cc(N2CCC(N3CCOCC3)CC2)c2c(C3CCC3)nn(-c3ccc(F)cc3)c2n1
5. CN(C)S(=O)(=O)NC(=O)c1cc(N2CCC(N3CCC(C#N)C3)CC2)c2c(C3CCC3)nn(-c3ccc(F)cc3)c2n1 (stereo not drawn)
6. CS(=O)(=O)NC(=O)c1cc(N2CCC3(CCCCC3)CC2)c2c(C3CCC3)nn(-c3ccccc3)c2n1
7. CN(C)S(=O)(=O)NC(=O)c1cc(N2CCC(CN3CCOCC3)CC2)c2c(C3CCC3)nn(C3CCCCC3)c2n1

[6.02, 6.41, 6.17, 6.86, 6.97, 5.85, 6.61]

I have 3 compounds here; please give me pEC50 for each one.
1. CN(C)S(=O)(=O)NC(=O)c1cc(N2CCC(N3CCOCC3)CC2)c2c(C3CCC3)nn(-c3ccccc3)c2n1
2. O=C(NS(=O)(=O)N1CCOCC1)c1cc(N2CCC(N3CCOCC3)CC2)c2c(C3CCC3)nn(-c3ccc(F)cc3)c2n1
3. CS(=O)(=O)NC(=O)c1cc(OCC2CCCCC2)c2c(C3CCC3)nn(-c3ccccc3)c2n1

[6.80, 6.76, 6.40]

----------
# target_of_assay: ΔF508-CFTR (Homo sapiens, UniProt P13569, DEL508-508)
# Construct: host or cells: CFBE41o-, doxycycline-inducible
# assay_protocol: CFTR cell surface levels using HRP-tagged ΔF508-CFTR expressing CFBE cells, intrinsic corrector capacity
# Type: cell-based
# Parameters: concentration or dose not given beside the values
# condition_set: HRP-tagged ΔF508-CFTR expressing CFBE41o- cells; compound alone (intrinsic corrector capacity); 20 hours at 33° C.
Field: % Activation. Provide a value for each of the compounds that follow.

// solved cases for % Activation follow
- compound: "COCC1CCN(c2cc(C(=O)NS(C)(=O)=O)nc3c2c(C2CCC2)nn3-c2ccnc(C)c2)CC1"
  % Activation: "170.05%"
- compound: "COCC1CCN(c2cc(C(=O)NS(C)(=O)=O)nc3c2c(C(C)C)nn3-c2ccnc(N3CCOCC3)n2)CC1"
  % Activation: "308.4%"
- compound: "COC1CCN(C2CCN(c3cc(C(=O)NS(=O)(=O)N(C)C)nc4c3c(C3CCC3)nn4-c3ccc(F)cc3)CC2)C1 (stereo not shown)"
  % Activation: "209.35%"

Field: next compound
The compound identified as `CN(C)S(=O)(=O)NC(=O)c1cc(OCC2CCN(C3CCCCC3)CC2)c2c(C3CCC3)nn(-c3ccc(F)cc3)c2n1` registered its % Activation at 112.8%

----------
# target_of_assay: ΔF508-CFTR (Homo sapiens, UniProt P13569, DEL508-508)
# Construct: host or cells: CFBE41o-, doxycycline-inducible
# assay_protocol: CFTR cell surface levels using HRP-tagged ΔF508-CFTR expressing CFBE cells, intrinsic corrector capacity
# Assay type: cell-based
# condition_set: HRP-tagged ΔF508-CFTR expressing CFBE41o- cells; compound alone (intrinsic corrector capacity); 20 hours at 33° C.; read-out: EC50
Field: pEC50. Provide a value for each of the compounds that follow.
Give bare numbers, as −log10 of the molar value.

// solved cases for pEC50 follow
- compound: "COCC1CCN(c2cc(C(=O)NS(=O)(=O)CCN3C(=O)c4ccccc4C3=O)nc3c2c(C2CCC2)nn3-c2ccccc2)CC1"
  value_measured: 5.73
- compound: "COCC1CCN(c2cc(C(=O)NS(=O)(=O)N(C)C)nc3c2c(C2CCC2)nn3-c2ccnc(C3CCOCC3)c2)CC1"
  value_measured: 6.63
- compound: "CO[C@H]1CC[C@H](Oc2cc(C(=O)NS(C)(=O)=O)nc3c2c(C2CCC2)nn3-c2ccccc2)CC1"
  value_measured: 6.21
- compound: "CN(C)S(=O)(=O)NC(=O)c1cc(N2CCC(N3CCOC(C#N)C3)CC2)c2c(C3CCC3)nn(-c3ccc(F)cc3)c2n1 (stereo not shown)"
  value_measured: 7.10
- compound: "CS(=O)(=O)NC(=O)c1cc(N2CCC(CF)CC2)c2c(C3CCC3)nn(-c3ccccc3)c2n1"
  value_measured: 6.46
- compound: "COCCS(=O)(=O)NC(=O)c1cc(-c2ccc(N3CCOCC3)cc2)c2c(C(C)C)nn(C3CCOC3)c2n1 (stereo not shown)"
  value_measured: 5.78

Field: next compound
The compound identified as `CN(C(=O)c1cc(N2CCC(N3CCOCC3)CC2)c2c(C3CCC3)nn(-c3ccc(F)cc3)c2n1)S(C)(=O)=O` registered its pEC50 at 5.29
